assay: Clearance in Sprague-Dawley rat at 2 mg/kg, iv; assay type: ADME, organism-based; design: dose 2 mg/kg, route intravenous; conditions: in vivo
observedProperty: clearance (mL/min/kg)
# output: bare number, implied unit mL/min/kg

For the compound `Cc1ccc(F)cc1C(C)(C)C[C@@](O)(Cc1cc2cnccc2[nH]1)C(C)(C)C` , give its measured clearance value. 48

---

observedProperty: EC50

Report EC50 under test system Glucocorticoid receptor (Homo sapiens) for Cc1ccc(F)cc1C(C)(C)CC(O)(Cc1cc2cnccc2[nH]1)C(C)(C)C (racemic) . > 2000 nM

Report EC50 under test system Glucocorticoid receptor (Homo sapiens) for COc1ccc(F)cc1C(C)(C)CC(O)(Cc1cc2cnccc2[nH]1)C(C)(C)C (centres undefined) . > 2000 nM

Report EC50 under test system Glucocorticoid receptor (Homo sapiens) for Cc1ccc(F)cc1C(C)(C)CC(O)(Cc1cc2cnccc2[nH]1)C1CC1 (centres undefined) . > 2000 nM

Report EC50 under test system Glucocorticoid receptor (Homo sapiens) for COc1ccc(F)cc1C(C)(C)CC(O)(Cc1cc2cnccc2[nH]1)C1CC1 (centres undefined) . 90 nM
